# System: CYP2C19
# measurementDescription: clinical
# testParameters: both, human, in vivo, po, 20 mg, AUC0-t (geometric mean)
observable: AUC(0-t) (ng·h/mL)
Answer format: numeric, ng·h/mL implied, no suffix.

Prompt: Look up and report AUC(0-t), with CYP2C19 as system, for COc1ccc2[nH]c([S+]([O-])Cc3ncc(C)c(OC)c3C)nc2c1 (stereo not shown)
Response: 545

###

# measurementDescription: in vivo
# Parameters: species or system rats
# testParameters: female, rat, po, 50 mg/kg/day
observable: AUC(0-t) (µg·h/mL)
Answer format: numeric, µg·h/mL implied, no suffix.

Prompt: Specify measured AUC(0-t) for O=C1N(Cc2ccc(C(F)(F)F)o2)c2ccccc2[C@]12COc1cc3c(cc12)OCO3 .
Response: 18

###

# Tested on: CYP2C19
# measurementDescription: clinical
# testParameters: both, human, in vivo, po, 20 mg, AUC0-inf (geometric mean)
observable: AUC(0-inf) (ng·h/mL)
Answer format: numeric, ng·h/mL implied, no suffix.

Prompt: Look up and report AUC(0-inf), with CYP2C19 as system, for COc1ccc2[nH]c([S+]([O-])Cc3ncc(C)c(OC)c3C)nc2c1 (stereo not shown)
Response: 635

###

# System: CYP2C19
# measurementDescription: clinical
# testParameters: both, human, in vivo, po, 20 mg
observable: Tmax

Prompt: Specify measured Tmax for COc1ccc2[nH]c([S+]([O-])Cc3ncc(C)c(OC)c3C)nc2c1 (stereo not shown) .
Response: 2 h

###

# targetEntity: CYP3A4 (Homo sapiens)
# Sequence (P08684 whole entry): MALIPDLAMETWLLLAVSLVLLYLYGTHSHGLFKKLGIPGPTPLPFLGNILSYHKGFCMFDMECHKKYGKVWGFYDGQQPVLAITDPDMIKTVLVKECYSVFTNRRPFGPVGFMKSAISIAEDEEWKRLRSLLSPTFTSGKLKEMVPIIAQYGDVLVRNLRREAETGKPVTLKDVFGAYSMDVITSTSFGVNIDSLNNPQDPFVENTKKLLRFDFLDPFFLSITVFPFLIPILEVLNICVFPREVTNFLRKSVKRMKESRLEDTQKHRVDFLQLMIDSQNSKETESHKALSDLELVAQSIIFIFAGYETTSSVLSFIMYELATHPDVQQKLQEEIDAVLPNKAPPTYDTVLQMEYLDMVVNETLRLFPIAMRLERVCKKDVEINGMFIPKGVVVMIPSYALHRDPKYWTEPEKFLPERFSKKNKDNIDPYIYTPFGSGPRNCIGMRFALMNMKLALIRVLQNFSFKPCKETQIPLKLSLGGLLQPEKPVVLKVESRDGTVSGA
# measurementDescription: Drug-drug interaction study in healthy subjects: midazolam (CYP3A4 substrate) pharmacokinetics (Biological Example 5)
# testParameters: both, human, in vivo, 3 mg
observable: Cmax (ng/mL)
Answer format: numeric, ng/mL implied, no suffix.

Prompt: Specify measured Cmax for Cc1ncc2n1-c1ccc(Cl)cc1C(c1ccccc1F)=NC2 [midazolam, reference compound] .
Response: 14.6

###

# measurementDescription: in vivo
# Set-up: species or system rats
# testParameters: female, rat, po, NOAEL for embryo-fetal toxicity
observable: NOAEL (mg/kg/day)
Answer format: numeric, mg/kg/day implied, no suffix.

Prompt: Specify measured NOAEL for O=C1N(Cc2ccc(C(F)(F)F)o2)c2ccccc2[C@]12COc1cc3c(cc12)OCO3 .
Response: 150

###

# measurementDescription: 4-week (GLP) repeat-dose dermal toxicity study in minipigs
# testParameters: minipig, in vivo, topical or ocular; male minipigs, 30 mg/kg/day dermal, day 28; read-out: AUC0-24 h
# Method: Repeat-dose dermal toxicity of a pharmaceutical composition comprising the spiro-oxindole compound was evaluated in minipigs in a 7-day (non-GLP) dermal study and in a 4-week (GLP) dermal study with a 2-week recovery period. In addition, a dose range-finding (DRF) dermal study in minipigs was conducted to aid in dose selection for a 39-week dermal toxicity study in minipigs. […]
observable: AUC(0-t) (ng·h/mL)
Answer format: numeric, ng·h/mL implied, no suffix.

Prompt: Specify measured AUC(0-t) for O=C1N(Cc2ccc(C(F)(F)F)o2)c2ccccc2[C@]12COc1cc3c(cc12)OCO3 [spiro-oxindole compound] .
Response: 365

###

# targetEntity: UniProt:P08684
# measurementDescription: Drug-drug interaction study in healthy subjects: midazolam (CYP3A4 substrate) pharmacokinetics (Biological Example 5)
# testParameters: both, human, in vivo, po, 3 mg
observable: AUC(0-t) (ng·h/mL)
Answer format: numeric, ng·h/mL implied, no suffix.

Prompt: Specify measured AUC(0-t) for Cc1ncc2n1-c1ccc(Cl)cc1C(c1ccccc1F)=NC2 [midazolam, reference compound] .
Response: 42.2

###

# measurementDescription: Drug-drug interaction study in healthy subjects: pharmacokinetics of the spiro-oxindole compound (Biological Example 5)
# Format: in vivo, human
# testParameters: both sexes, human, plasma, topical, 8 % composition applied to 53% of BSA, day 9, after final application of 8% composition (BID, 53% BSA, 7.5 days), read-out: mean plasma concentration at 24 hours postdose
observable: concentration at 24 hours (ng/mL)
Answer format: numeric, ng/mL implied, no suffix.

Prompt: Specify measured concentration at 24 hours for O=C1N(Cc2ccc(C(F)(F)F)o2)c2ccccc2[C@]12COc1cc3c(cc12)OCO3 [spiro-oxindole compound] .
Response: 11.7

###

# measurementDescription: in vivo
# Set-up: species or system rats
# testParameters: female, rat, po, 150 mg/kg/day
observable: AUC(0-t) (ng·h/mL)
Answer format: numeric, ng·h/mL implied, no suffix.

Prompt: Specify measured AUC(0-t) for O=C1N(Cc2ccc(C(F)(F)F)o2)c2ccccc2[C@]12COc1cc3c(cc12)OCO3 [spiro-oxindole compound] .
Response: 41500

###

# measurementDescription: in vivo
# Design: species or system rats
# testParameters: female, rat, po, 150 mg/kg/day
observable: Cmax (ng/mL)
Answer format: numeric, ng/mL implied, no suffix.

Prompt: Specify measured Cmax for O=C1N(Cc2ccc(C(F)(F)F)o2)c2ccccc2[C@]12COc1cc3c(cc12)OCO3 [spiro-oxindole compound] .
Response: 3380

###

# measurementDescription: in vivo
# Parameters: species or system rats
# testParameters: female, rat, po, 50 mg/kg/day
observable: Cmax (ng/mL)
Answer format: numeric, ng/mL implied, no suffix.

Prompt: Specify measured Cmax for O=C1N(Cc2ccc(C(F)(F)F)o2)c2ccccc2[C@]12COc1cc3c(cc12)OCO3 .
Response: 1440

###

# measurementDescription: in vivo
# Parameters: species or system rats
# testParameters: both sexes, rat, po
observable: NOAEL (mg/kg/day)
Answer format: numeric, mg/kg/day implied, no suffix.

Prompt: Specify measured NOAEL for O=C1N(Cc2ccc(C(F)(F)F)o2)c2ccccc2[C@]12COc1cc3c(cc12)OCO3 .
Response: 150

###

# measurementDescription: Drug-drug interaction study in healthy subjects: pharmacokinetics of the spiro-oxindole compound (Biological Example 5)
# Assay type: in vivo, human
# testParameters: both sexes, human, plasma, topical, 8 % composition applied to 53% of BSA, BID, first 12 hours after the final application, read-out: geometric mean AUC0-12
observable: AUC(0-t) (ng·h/mL)
Answer format: numeric, ng·h/mL implied, no suffix.

Prompt: Specify measured AUC(0-t) for O=C1N(Cc2ccc(C(F)(F)F)o2)c2ccccc2[C@]12COc1cc3c(cc12)OCO3 .
Response: 133

Reference source: patent US9682033B2
